Assay text: Plasma pharmacokinetics (LC-MS/MS)
Assay type: in vivo, human
Condition description: human, plasma, oral, 13 mg, cycle 1, day 1; 13 mg; read-out: AUC0–24h [%CV]
Test readout: AUC(0-t)
Please provide the amount together with its unit, number first.

Record "CC(C)n1nc(-c2ccc3oc(N)nc3c2)c2c(N)ncnc21" . Reported AUC(0-t): 953 ng·h/mL

---

Assay text: Plasma pharmacokinetics (LC-MS/MS)
Assay type: in vivo, human
Condition description: human, plasma, oral, 4 mg, cycle 1, day 1; 4 mg; read-out: t½ (converted)
Test readout: half-life (h)
Just the number please, in h, no unit attached.

In plain terms, CC(C)n1nc(-c2ccc3oc(N)nc3c2)c2c(N)ncnc21 [Sapanisertib] has a documented half-life of 7.1

---

Assay text: Plasma pharmacokinetics (LC-MS/MS)
Assay type: in vivo, human
Condition description: human, plasma, oral, 7 mg, cycle 2, day 1; QDx5dQW 7 mg
Test readout: Cmax (ng/mL)
Give the value, in units of ng/mL, as a plain number.

Entry "CC(C)n1nc(-c2ccc3oc(N)nc3c2)c2c(N)ncnc21" ; Cmax = 49.7

---

Assay text: Plasma pharmacokinetics (LC-MS/MS)
Assay type: in vivo, human
Condition description: human, plasma, oral, 13 mg, cycle 1, day 1; 13 mg; read-out: t½ (converted)
Test readout: half-life (h)
Answer in h, number only, no unit symbol.

Quick note, half-life for "CC(C)n1nc(-c2ccc3oc(N)nc3c2)c2c(N)ncnc21" landed at 8.7

---

Assay text: Plasma pharmacokinetics (LC-MS/MS)
Format: in vivo, human
Condition description: human, plasma, oral, 2 mg, cycle 2, day 1; QD 2 mg; read-out: t½ (converted)
Test readout: half-life
The number alone won't do; follow it with the unit.

Reported half-life for CC(C)n1nc(-c2ccc3oc(N)nc3c2)c2c(N)ncnc21 [Sapanisertib] was 8.1 h

---

Assay text: Plasma pharmacokinetics (LC-MS/MS)
Assay type: in vivo, human
Condition description: human, plasma, oral, 9 mg, cycle 2, day 1; QDx3dQW 9 mg; read-out: AUC0–24h [%CV]
Test readout: AUC(0-t) (ng·h/mL)
Please reply with the bare figure in ng·h/mL and do not write the unit itself.

Data point: "CC(C)n1nc(-c2ccc3oc(N)nc3c2)c2c(N)ncnc21" ; AUC(0-t) = 707

---

Assay text: Plasma pharmacokinetics (LC-MS/MS)
Format: in vivo, human
Condition description: human, plasma, oral, 30 mg, cycle 2, day 1; QW 30 mg
Procedure: Peripheral blood was collected serially to quantify plasma levels of sapanisertib for PK analysis via validated liquid chromatography tandem mass spectrometry with an assay range of 1–1000 ng/mL (MicroConstants, San Diego, CA), during both dose-escalation and expansion phases. Blood samples were collected before each dose and 0.5, 1, 2, 4, 8 and 24 h after dosing on cycle 1, day 1 and cycle 2, day 1, in the dose-escalation phase. […]
Test readout: Cmax
The answer should read as a number with its unit following.

Kindly note the recorded Cmax for "CC(C)n1nc(-c2ccc3oc(N)nc3c2)c2c(N)ncnc21" , which is 133 ng/mL

---

Assay text: Plasma pharmacokinetics (LC-MS/MS)
Assay type: in vivo, human
Condition description: human, plasma, oral, 10 mg, cycle 1, day 1; 10 mg; read-out: t½ (converted)
Test readout: half-life
Answer with the value and then the unit.

half-life in this record for "CC(C)n1nc(-c2ccc3oc(N)nc3c2)c2c(N)ncnc21" : 6.4 h

---

Assay text: Plasma pharmacokinetics (LC-MS/MS)
Assay type: in vivo, human
Condition description: human, plasma, oral, 2 mg, cycle 2, day 1; QD 2 mg; read-out: AUC0–24h [%CV]
Test readout: AUC(0-t) (ng·h/mL)
Numeric answer only, unit ng·h/mL assumed.

Kindly note the recorded AUC(0-t) for CC(C)n1nc(-c2ccc3oc(N)nc3c2)c2c(N)ncnc21 [Sapanisertib] , which is 185

---

Assay text: Plasma pharmacokinetics (LC-MS/MS)
Format: in vivo, human
Condition description: human, plasma, oral, 20 mg, cycle 1, day 1; 20 mg; read-out: AUC0–24h [%CV]
Test readout: AUC(0-t)

Noted for "CC(C)n1nc(-c2ccc3oc(N)nc3c2)c2c(N)ncnc21" : its AUC(0-t) reads 1260 ng·h/mL

---

Assay text: Plasma pharmacokinetics (LC-MS/MS)
Assay type: in vivo, human
Condition description: human, plasma, oral, 12 mg, cycle 2, day 1; QDx3dQW 12 mg
Test readout: Cmax (ng/mL)
Give just the numeric value; ng/mL need not be written.

Notebook: CC(C)n1nc(-c2ccc3oc(N)nc3c2)c2c(N)ncnc21 [Sapanisertib] , Cmax read as 113

---

Assay text: Plasma pharmacokinetics (LC-MS/MS)
Assay type: in vivo, human
Condition description: human, plasma, oral, 7 mg, cycle 1, day 1; 7 mg; read-out: AUC0–24h [%CV]
Test readout: AUC(0-t)
Give the number first and the unit second.

# AUC(0-t) of "CC(C)n1nc(-c2ccc3oc(N)nc3c2)c2c(N)ncnc21" = 327 ng·h/mL

---

Assay text: Plasma pharmacokinetics (LC-MS/MS)
Type: in vivo, human
Condition description: human, plasma, oral, 30 mg, cycle 2, day 1; QW 30 mg; read-out: AUC0–24h [%CV]
Test readout: AUC(0-t)

# AUC(0-t) of "CC(C)n1nc(-c2ccc3oc(N)nc3c2)c2c(N)ncnc21" = 1120 ng·h/mL

---

Assay text: Plasma pharmacokinetics (LC-MS/MS)
Format: in vivo, human
Condition description: human, plasma, oral, 4 mg, cycle 2, day 1; QD 4 mg; read-out: t½ (converted)
Test readout: half-life (h)
All answers are understood in h, so give the number only.

Kindly note the recorded half-life for "CC(C)n1nc(-c2ccc3oc(N)nc3c2)c2c(N)ncnc21" , which is 10.3

---

Assay text: Plasma pharmacokinetics (LC-MS/MS)
Type: in vivo, human
Condition description: human, plasma, oral, 2 mg, cycle 1, day 1; 2 mg; read-out: AUC0–last [%CV]
Test readout: AUC(0-t) (ng·h/mL)
Give your result in ng·h/mL as a bare value.

Notebook: "CC(C)n1nc(-c2ccc3oc(N)nc3c2)c2c(N)ncnc21" , AUC(0-t) read as 65.4

---

Assay text: Plasma pharmacokinetics (LC-MS/MS)
Format: in vivo, human
Condition description: human, plasma, oral, 12 mg, cycle 1, day 1; 12 mg; read-out: AUC0–24h [%CV]
Test readout: AUC(0-t)
Field note: include the unit after the figure.

What the record says about "CC(C)n1nc(-c2ccc3oc(N)nc3c2)c2c(N)ncnc21" : AUC(0-t) is 730 ng·h/mL

---

Assay text: Plasma pharmacokinetics (LC-MS/MS)
Format: in vivo, human
Condition description: human, plasma, oral, 40 mg, cycle 1, day 1; 40 mg; read-out: t½ (converted)
Test readout: half-life (h)
Give a bare numeral; the unit h is implied.

Quick note, half-life for CC(C)n1nc(-c2ccc3oc(N)nc3c2)c2c(N)ncnc21 [Sapanisertib] landed at 7.6

---

Assay text: Plasma pharmacokinetics (LC-MS/MS)
Assay type: in vivo, human
Condition description: human, plasma, oral, 9 mg, cycle 2, day 1; QDx3dQW 9 mg
Experimental: Peripheral blood was collected serially to quantify plasma levels of sapanisertib for PK analysis via validated liquid chromatography tandem mass spectrometry with an assay range of 1–1000 ng/mL (MicroConstants, San Diego, CA), during both dose-escalation and expansion phases. Blood samples were collected before each dose and 0.5, 1, 2, 4, 8 and 24 h after dosing on cycle 1, day 1 and cycle 2, day 1, in the dose-escalation phase. […]
Test readout: Cmax

Please fill in: Cmax reported for "CC(C)n1nc(-c2ccc3oc(N)nc3c2)c2c(N)ncnc21" = 83.1 ng/mL

---

Assay text: Plasma pharmacokinetics (LC-MS/MS)
Format: in vivo, human
Condition description: human, plasma, oral, 10 mg, cycle 1, day 1; 10 mg; read-out: AUC0–24h [%CV]
Description: Peripheral blood was collected serially to quantify plasma levels of sapanisertib for PK analysis via validated liquid chromatography tandem mass spectrometry with an assay range of 1–1000 ng/mL (MicroConstants, San Diego, CA), during both dose-escalation and expansion phases. Blood samples were collected before each dose and 0.5, 1, 2, 4, 8 and 24 h after dosing on cycle 1, day 1 and cycle 2, day 1, in the dose-escalation phase. […]
Test readout: AUC(0-t) (µg·h/mL)
Quick reminder: number only, in µg·h/mL, skip the unit.

Just so you know, measured AUC(0-t) for CC(C)n1nc(-c2ccc3oc(N)nc3c2)c2c(N)ncnc21 [Sapanisertib] came out at 0.342

---

Assay text: Plasma pharmacokinetics (LC-MS/MS)
Type: in vivo, human
Condition description: human, plasma, oral, 40 mg, cycle 1, day 1; 40 mg; read-out: Tmax, median
Test readout: Tmax (h)
State the answer as a number, implicitly in h.

Reported Tmax ( CC(C)n1nc(-c2ccc3oc(N)nc3c2)c2c(N)ncnc21 [Sapanisertib] ) = 2.4

---

Assay text: Plasma pharmacokinetics (LC-MS/MS)
Type: in vivo, human
Condition description: human, plasma, oral, 6 mg, cycle 2, day 1; QD 6 mg; read-out: t½ (converted)
Test readout: half-life (h)
Note: unit h is implicit; provide only the numeric part.

Quick note, half-life for "CC(C)n1nc(-c2ccc3oc(N)nc3c2)c2c(N)ncnc21" landed at 7.3
